These measurements were taken from patent US20250152746A1.

Tested on: PCSK9 gene
Test: PCSK9 gRNA/SpCas9 editing in primary human hepatocytes (Tables 2, 4)
Assay type: cell-based
Details: 100 ng/RNA/mL; SpCas9 mRNA MS002 1:1 by weight
m = 2'-O-methyl; r = 2'-OH (RNA)
assayMetric: Human Primary Hepatocyte Editing % 100 (%)

molecule	valueObserved
GA237: PCSK9 gRNA; protospacer CAACGCCGCCTGCCAGCGCC (SEQ ID NO: 230) (nucleic acid, sugars from the 5' end m3 r94 m3, linkages s3 o93 s3 (s phosphorothioate, o phosphodiester), T or U not given here) guide: CAACGCCGCCUGCCAGCGCCGUUUUAGAGCUAGAAAUAGCAAGUUAAAAUAAGGCUAGUCCGUUAUCAACUUGAAAAAGUGGCACCGAGUCGGUGCUUUU	4.53
GA169: PCSK9 gRNA; protospacer CGTGCGCAGGAGGACGAGGA (SEQ ID NO: 163) (nucleic acid, sugars from the 5' end m3 r94 m3, linkages s3 o93 s3 (s phosphorothioate, o phosphodiester), T or U not given here) guide: CGUGCGCAGGAGGACGAGGAGUUUUAGAGCUAGAAAUAGCAAGUUAAAAUAAGGCUAGUCCGUUAUCAACUUGAAAAAGUGGCACCGAGUCGGUGCUUUU	5.49
GA194: PCSK9 gRNA; protospacer GTCGACATGGGGCAACTTCA (SEQ ID NO: 188) (nucleic acid, sugars from the 5' end m3 r94 m3, linkages s3 o93 s3 (s phosphorothioate, o phosphodiester), T or U not given here) guide: GUCGACAUGGGGCAACUUCAGUUUUAGAGCUAGAAAUAGCAAGUUAAAAUAAGGCUAGUCCGUUAUCAACUUGAAAAAGUGGCACCGAGUCGGUGCUUUU	2.32
